System: Salmonella typhi ATCC19430
Experiment: Antimicrobial MIC, agar dilution
Assay type: cell-based
Conditions: Salmonella enterica, 18 h, read-out: Minimum inhibitory concentration (MIC)
Reported MIC is given for each of the following compounds.
Expressed in µg/mL, but write only the number.

Solved cases below.
Recorded MIC of "COc1cc(/C=C/C(=O)CC(=O)/C=C/c2ccc(OC(=O)[C@H](C)NC(=O)OCC3c4ccccc4-c4ccccc43)c(OC)c2)ccc1OC(=O)[C@H](C)NC(=O)OCC1c2ccccc2-c2ccccc21" , please.
0.25

Would you kindly repeat that for "COc1cc(/C=C/C(=O)CC(=O)/C=C/c2ccc(OC(=O)[C@H](Cc3ccccc3)NC(=O)OCc3ccccc3)c(OC)c2)ccc1OC(=O)[C@H](Cc1ccccc1)NC(=O)OCc1ccccc1" ?
0.125

New cases:
Recorded MIC of COc1cc(/C=C/C(=O)CC(=O)/C=C/c2ccc(OC(=O)[C@@H](N)C(C)C)c(OC)c2)ccc1OC(=O)[C@@H](N)C(C)C.Cl.Cl [HCl-L-Val-Cur] , please.
0.125

Would you kindly repeat that for "COc1cc(/C=C/C(=O)CC(=O)/C=C/c2ccc(OC(=O)CNC(=O)OCC3c4ccccc4-c4ccccc43)c(OC)c2)ccc1OC(=O)CNC(=O)OCC1c2ccccc2-c2ccccc21" ?
1

Would you kindly repeat that for "COc1cc(/C=C/C(=O)CC(=O)/C=C/c2ccc(OC(=O)[C@H](CCC(N)=O)NC(=O)OCc3ccccc3)c(OC)c2)ccc1OC(=O)[C@H](CCC(N)=O)NC(=O)OCc1ccccc1" ?
0.5

Would you kindly repeat that for "COc1cc(/C=C/C(=O)CC(=O)/C=C/c2ccc(OC(=O)[C@H](C)NC(=O)OC(C)(C)C)c(OC)c2)ccc1OC(=O)[C@H](C)NC(=O)OC(C)(C)C" ?
0.125

----------
System: carrageenan induced paw edema
Experiment: Anti-inflammatory activity: acute carrageenan induced paw edema in rats
Assay type: in vivo, Wister rats
Conditions: 1 h; 10 mg kg^−1 indomethacin mol equivalent, intraperitoneally
REPORTED PROPERTY: % inhibition of edema (%)
Expressed in %, but write only the number.

For the record "COc1cc(/C=C/C(=O)CC(=O)/C=C/c2ccc(OC(=O)[C@@H](CCSC)NC(=O)OC(C)(C)C)c(OC)c2)ccc1OC(=O)[C@@H](CCSC)NC(=O)OC(C)(C)C" , what value of % inhibition of edema is listed for carrageenan induced paw edema?
58

Would you kindly repeat that for COc1cc(/C=C/C(=O)CC(=O)/C=C/c2ccc(OC(=O)C(C)NC(=O)OC(C)(C)C)c(OC)c2)ccc1OC(=O)C(C)NC(=O)OC(C)(C)C (stereo not drawn) ?
11

New cases:
For the record "COc1cc(/C=C/C(=O)CC(=O)/C=C/c2ccc(OC(=O)[C@H](CC(C)C)NC(=O)OCc3ccccc3)c(OC)c2)ccc1OC(=O)[C@H](CC(C)C)NC(=O)OCc1ccccc1" , what value of % inhibition of edema is listed for carrageenan induced paw edema?
34

Would you kindly repeat that for "COc1cc(/C=C/C(=O)CC(=O)/C=C/c2ccc(OC(=O)[C@H](CCSC)NC(=O)OCc3ccccc3)c(OC)c2)ccc1OC(=O)[C@H](CCSC)NC(=O)OCc1ccccc1" ?
76

Would you kindly repeat that for "COc1cc(/C=C/C(=O)CC(=O)/C=C/c2ccc(OC(=O)[C@@H](C)N)c(OC)c2)ccc1OC(=O)[C@@H](C)N.Cl.Cl" ?
61

Would you kindly repeat that for COc1cc(/C=C/C(=O)CC(=O)/C=C/c2ccc(OC(=O)C(C)NC(=O)OCc3ccccc3)c(OC)c2)ccc1OC(=O)C(C)NC(=O)OCc1ccccc1 (stereo not drawn) ?
72

Would you kindly repeat that for "COc1cc(/C=C/C(=O)CC(=O)/C=C/c2ccc(OC(=O)[C@@H](C)NC(=O)OCc3ccccc3)c(OC)c2)ccc1OC(=O)[C@@H](C)NC(=O)OCc1ccccc1" ?
82

----------
Test system: gastric mucosa
Assay: Ulcerogenic liability (ulcer index)
Assay type: in vivo, albino mice
Details: orally, three successive days, 10 mg/kg indomethacin mol equivalent
REPORTED PROPERTY: % Incidence of ulcer divided by 10
Answer with a number only.

Recorded % Incidence of ulcer divided by 10 of COc1cc(/C=C/C(=O)CC(=O)/C=C/c2ccc(OC(=O)CCN)c(OC)c2)ccc1OC(=O)CCN.Cl.Cl [HCl-β-Ala-Cur] , please.
0

Would you kindly repeat that for COc1cc(/C=C/C(=O)CC(=O)/C=C/c2ccc(OC(=O)[C@@H](C)N)c(OC)c2)ccc1OC(=O)[C@@H](C)N.Cl.Cl [HCl-D-Ala-Cur] ?
0

// next entry
Recorded % Incidence of ulcer divided by 10 of COc1cc(/C=C/C(=O)CC(=O)/C=C/c2ccc(OC(=O)C(C)NC(=O)OCc3ccccc3)c(OC)c2)ccc1OC(=O)C(C)NC(=O)OCc1ccccc1 (racemic) , please.
3.33

----------
Test system: PHA-stimulated splenocytes
Assay: Proliferative response of PHA-stimulated splenocytes (MTT assay)
Assay type: cell-based
Conditions: PHA 5 μg/ml, 72 hr; compounds at 5 μM (method says 10 μM); ratio of O.D. versus vehicle control
Description: Immunomodulatory effects of the synthesized curcumin conjugates on the proliferative response of PHA-stimulated splenocytes were evaluated. The effect of curcumin and its amino acid conjugates on splenocyte viability and proliferation in response to a T cell miotgen (Phytohaemagglutinin; PHA) was evaluated using the MTT assay. […] Absorbance was measured with a spectrophotometer at 570 nm and reference wavelength of 690 nm. […]
REPORTED PROPERTY: Stimulation Index (average ± SD)
Answer with a number only.

Recorded Stimulation Index (average ± SD) of "COc1cc(/C=C/C(=O)CC(=O)/C=C/c2ccc(OC(=O)[C@@H](NC(=O)OCc3ccccc3)C(C)C)c(OC)c2)ccc1OC(=O)[C@@H](NC(=O)OCc1ccccc1)C(C)C" , please.
2.87

Would you kindly repeat that for COc1cc(/C=C/C(=O)CC(=O)/C=C/c2ccc(OC(=O)[C@H](N)CCSC)c(OC)c2)ccc1OC(=O)[C@H](N)CCSC.Cl.Cl [HCl-D-Met-Cur] ?
1.01

Would you kindly repeat that for COc1cc(/C=C/C(=O)CC(=O)/C=C/c2ccc(OC(=O)[C@@H](N)CCSC)c(OC)c2)ccc1OC(=O)[C@@H](N)CCSC.Cl.Cl [HCl-L-Met-Cur] ?
1.49

Would you kindly repeat that for "COc1cc(/C=C/C(=O)CC(=O)/C=C/c2ccc(OC(=O)[C@H](CCSC)NC(=O)OCC3c4ccccc4-c4ccccc43)c(OC)c2)ccc1OC(=O)[C@H](CCSC)NC(=O)OCC1c2ccccc2-c2ccccc21" ?
1.07

Would you kindly repeat that for COc1cc(/C=C/C(=O)CC(=O)/C=C/c2ccc(OC(=O)CN)c(OC)c2)ccc1OC(=O)CN.Cl.Cl [HCl-Gly-Cur] ?
0.99

New cases:
Recorded Stimulation Index (average ± SD) of COc1cc(/C=C/C(=O)CC(=O)/C=C/c2ccc(OC(=O)[C@H](C)N)c(OC)c2)ccc1OC(=O)[C@H](C)N.Cl.Cl [HCl-L-Ala-Cur] , please.
1.14

Would you kindly repeat that for COc1cc(/C=C/C(=O)CC(=O)/C=C/c2ccc(OC(=O)[C@@H](N)C(C)C)c(OC)c2)ccc1OC(=O)[C@@H](N)C(C)C.Cl.Cl [HCl-L-Val-Cur] ?
2.05

Would you kindly repeat that for "COc1cc(/C=C/C(=O)CC(=O)/C=C/c2ccc(O)c(OC)c2)ccc1O" ?
1.52

Would you kindly repeat that for "COc1cc(/C=C/C(=O)CC(=O)/C=C/c2ccc(OC(=O)CNC(=O)OCC3c4ccccc4-c4ccccc43)c(OC)c2)ccc1OC(=O)CNC(=O)OCC1c2ccccc2-c2ccccc21" ?
1.76

Would you kindly repeat that for COc1cc(/C=C/C(=O)CC(=O)/C=C/c2ccc(OC(=O)[C@@H](C)N)c(OC)c2)ccc1OC(=O)[C@@H](C)N.Cl.Cl [HCl-D-Ala-Cur] ?
1.35

Would you kindly repeat that for "COc1cc(/C=C/C(=O)CC(=O)/C=C/c2ccc(OC(=O)CNC(=O)OC(C)(C)C)c(OC)c2)ccc1OC(=O)CNC(=O)OC(C)(C)C" ?
2.11

Would you kindly repeat that for "COc1cc(/C=C/C(=O)CC(=O)/C=C/c2ccc(OC(=O)[C@@H](NC(=O)OCC3c4ccccc4-c4ccccc43)C(C)C)c(OC)c2)ccc1OC(=O)[C@@H](NC(=O)OCC1c2ccccc2-c2ccccc21)C(C)C" ?
2.55

Would you kindly repeat that for "COc1cc(/C=C/C(=O)CC(=O)/C=C/c2ccc(OC(=O)[C@H](CCC(N)=O)NC(=O)OC(C)(C)C)c(OC)c2)ccc1OC(=O)[C@H](CCC(N)=O)NC(=O)OC(C)(C)C" ?
2.14

Would you kindly repeat that for "COc1cc(/C=C/C(=O)CC(=O)/C=C/c2ccc(OC(=O)[C@H](C)NC(=O)OCC3c4ccccc4-c4ccccc43)c(OC)c2)ccc1OC(=O)[C@H](C)NC(=O)OCC1c2ccccc2-c2ccccc21" ?
2.22

Would you kindly repeat that for COc1cc(/C=C/C(=O)CC(=O)/C=C/c2ccc(OC(=O)[C@@H](N)Cc3ccccc3)c(OC)c2)ccc1OC(=O)[C@@H](N)Cc1ccccc1.Cl.Cl [HCl-L-Phe-Cur] ?
1.41

Would you kindly repeat that for CC[C@H](C)[C@H](N)C(=O)Oc1ccc(/C=C/C(=O)CC(=O)/C=C/c2ccc(OC(=O)[C@@H](N)[C@@H](C)CC)c(OC)c2)cc1OC.Cl.Cl [HCl-L-Ile-Cur] ?
1.59

Would you kindly repeat that for "COc1cc(/C=C/C(=O)CC(=O)/C=C/c2ccc(OC(=O)[C@H](CC(C)C)NC(=O)OCc3ccccc3)c(OC)c2)ccc1OC(=O)[C@H](CC(C)C)NC(=O)OCc1ccccc1" ?
2.83

Would you kindly repeat that for COc1cc(/C=C/C(=O)CC(=O)/C=C/c2ccc(OC(=O)CCN)c(OC)c2)ccc1OC(=O)CCN.Cl.Cl [HCl-β-Ala-Cur] ?
1.39
